Reference for the values: patent US20150274802A1

For each of the binders below, state its % native IGF-1 activity (0.55 nM).
# target entity: T1, human IGF-1 receptor (human, UniProt P08069 31-1367)
# T1 construct: whole, on cells; transfected HEK293 cells in the phosphorylation assay
# procedure text: competition SPA, [125I]IGF-1
Ends that are not written are not given here.
Write the number in % without appending the unit.

QUERY: Report % native IGF-1 activity (0.55 nM) for IGF-1 A (H8 A9 N21):B(H5D10Y16L17) DPI A-COOH (ligand, not fully specified (C-terminus); ends and bridges not checked) chain 1: GIVDECCHASCDLRRLEMYCN-OH chain 2: GPEHLCGADLVDALYLVCGDRGFY please.
RESULT: 13.6

QUERY: Return reported % native IGF-1 activity (0.55 nM); argument: IGF-1 A:B(E10Y16L17)-E31E32 B-COOH (ligand, not fully specified (C-terminus); ends and bridges not checked) chain 1: GIVDECCFRSCDLRRLEMYCA chain 2: GPETLCGAELVDALYLVCGDRGFYFNKPTEE-OH
RESULT: 3.1

QUERY: Using the record for IGF-1 A:B (E10Y16L17) DPI (ligand, cysteine pairing not given here) chain 1: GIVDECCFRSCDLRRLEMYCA-NH2 chain 2: GPETLCGAELVDALYLVCGDRGFY-NH2 , report its % native IGF-1 activity (0.55 nM).
RESULT: 2.4

QUERY: What % native IGF-1 activity (0.55 nM) value was documented for this binder, IGF-1 A:In B(1-5)-IGF-1 B(YL) (6-30) (ligand, ends and bridges not checked; also: C-terminal amide, chain not given here, chimeric B chain) chain 1: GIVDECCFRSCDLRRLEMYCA chain 2: FVNQHLCGAELVDALYLVCGDRGFYFNKPT ?
RESULT: 2
